read-out: growth arrest and DNA damage 45 (GADD45G), GADD45G (gene 10912); assay: LTEA_HepaRG_GADD45G: Life Technologies and Expression Analysis (LTEA) Assay for growth arrest and DNA damage 45 (GADD45G) using HepaRG (AID 2283499); settings: mRNA level, 48 h; actives raise or lower the signal
Active and inactive are the calls of the source. The calls were made as follows: active = hit-call score of the fitted dose curve at least 0.9, where 1 is the maximum; inactive = score below 0.9.
Pick one and only one: active, inactive

Solved cases below.
1) C1N2CN3CN1CN(C2)C3: inactive
2) CC(C)CCCCCCOC(=O)c1ccc(C(=O)OCCCCCCC(C)C)c(C(=O)OCCCCCCC(C)C)c1: inactive
3) COC(=O)c1ccccc1O: inactive
4) CCCCC(CC)COC(=O)CCCCCCCCC(=O)OCC(CC)CCCC (stereo unspecified): inactive
5) CCCCCCc1ccc(O)cc1O: inactive

Now look at this one.
-- ask Answer briefly: the call reported for O=c1[nH]c2ccc(S(=O)CCN3CCC(Cc4ccc(F)cc4)CC3)cc2o1 (stereo unspecified) in this assay.
-- reply active

---

read-out: Protein phosphatase 2A (PPP2R4), PTPA (gene 5524); experiment: LTEA_HepaRG_PPP2R4: Life Technologies and Expression Analysis (LTEA) Assay for Protein phosphatase 2A (PPP2R4) using HepaRG (AID 2283522); conditions: mRNA level, 48 h; actives raise or lower the signal
Calls of active or inactive are those of the source. The calls were made as follows: active = hit-call score of the fitted dose curve at least 0.9, where 1 is the maximum; inactive = score below 0.9.
Select the matching outcome among YES = active, NO = inactive

Please review the following examples before continuing.
1) CCCCCCCCO: NO
2) On1ccccc1=S: NO
3) Cc1c(-c2cccnc2)c2ccccc2n1CCCCC(=O)O: NO
4) COc1cccc(-c2ccc(/C=C\CN3CCCCCC3)cc2Cl)c1: NO

-- ask Returns: the outcome recorded for CCCCC(CC)COC(=O)c1ccc(C(=O)OCC(CC)CCCC)cc1 (stereo not given) in this assay.
-- reply NO

-- ask Record request — test call for O=c1n(CC2CO2)c(=O)n(CC2CO2)c(=O)n1CC1CO1 (stereo not given)
-- reply NO

---

read-out: Interleukin 6 Receptor (IL6R), IL6R (gene 3570); assay: LTEA_HepaRG_IL6R: Life Technologies and Expression Analysis (LTEA) Assay for Interleukin 6 Receptor (IL6R) using HepaRG (AID 2283510); conditions: mRNA level, 48 h; actives raise or lower the signal
Activity calls are given as the source filed them. The calls were made as follows: active = hit-call score of the fitted dose curve at least 0.9, where 1 is the maximum; inactive = score below 0.9.
Entry note: the call must match one of 1.0 = active, 0.0 = inactive

-- ask Call for entry "COc1ccc(/C=C/S(=O)(=O)NC(=O)c2ccc(C)cc2Cl)cc1" :
-- reply 0.0

-- ask // param item: "Cn1c(=O)c2c(ncn2C)n(C)c1=O" ; yields the recorded call
-- reply 0.0

-- ask Outcome? "C=CCCCCCCCCC(=O)O"
-- reply 0.0

-- ask Please state the recorded outcome for this molecule: "CC(C)CCCCCCOC(=O)c1ccc(C(=O)OCCCCCCC(C)C)c(C(=O)OCCCCCCC(C)C)c1"
-- reply 0.0

-- ask What was the test verdict on "CC[C@H](C)C(=O)O[C@H]1C[C@@H](C)C=C2C=C[C@H](C)[C@H](CC[C@@H]3C[C@@H](O)CC(=O)O3)[C@H]21" ?
-- reply 0.0

-- ask Name the outcome recorded for "CNCc1ccc(NC(=O)c2c[nH]c3c2C(=O)CCC3)cc1" in the assay.
-- reply 0.0

-- ask Answer briefly: the call reported for "CC(C)=CCC/C(C)=C\CO" in this assay.
-- reply 0.0
